Below, each entry is listed alongside its reported pKi.
Target: A2 adenosine receptors (Rattus norvegicus)
Sequence (P30543 whole entry): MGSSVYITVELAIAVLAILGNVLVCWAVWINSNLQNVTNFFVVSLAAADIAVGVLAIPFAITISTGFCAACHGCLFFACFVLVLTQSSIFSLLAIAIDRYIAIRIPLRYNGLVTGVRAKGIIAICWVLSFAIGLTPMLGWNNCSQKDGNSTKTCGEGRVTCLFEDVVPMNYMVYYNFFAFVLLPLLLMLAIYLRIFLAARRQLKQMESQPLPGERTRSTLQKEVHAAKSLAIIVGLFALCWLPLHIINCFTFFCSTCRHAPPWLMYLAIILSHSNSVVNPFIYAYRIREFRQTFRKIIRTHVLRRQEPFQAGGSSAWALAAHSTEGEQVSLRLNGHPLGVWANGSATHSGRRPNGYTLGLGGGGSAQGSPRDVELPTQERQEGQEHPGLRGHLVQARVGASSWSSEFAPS
Assay: Inhibition of [3H]CGS 21680 binding to A2 receptors in rat striatal membranes
Design: Rat cerebral cortical membranes and striatal membranes were prepared; from tissue; host or cells: rat striatal membranes
Settings: rat brain, vs 5.0 nM [3H]CGS 21680; read-out: A2-Receptor Ki
pKi is a log-scale quantity: -log10 of the concentration expressed in molar.

Example results:
>>> reported("O=S(=O)(O)CCCCCCCCCCNc1ncnc2c1ncn2[C@@H]1O[C@H](CO)[C@@H](O)[C@H]1O")
5.29
>>> reported("OC[C@H]1O[C@@H](n2cnc3c(NCCCc4ccccc4)ncnc32)[C@H](O)[C@@H]1O [3-phenylpropyl, reference compound]")
6.17
>>> reported("O=S(=O)(O)c1ccc(CCCCNc2ncnc3c2ncn3[C@@H]2O[C@H](CO)[C@@H](O)[C@H]2O)cc1")
4.95

Now look at this entry.
Briefly, pKi measured for OC[C@H]1O[C@@H](n2cnc3c(NCCCCc4ccccc4)ncnc32)[C@H](O)[C@@H]1O [4-phenylbutyl, reference compound] : 5.30
